Data origin: patent US8378104B2

For each record, write down the corresponding pIC50.
Tested on: p-p38 in HCT-116 cells
assay.notes: Phospho-p38 Meso Scale ELISA assay, TNFα-stimulated HCT-116 cells
Type: cell-based
measurement.conditions: Homo sapiens, read-out: mean HCT-116 p-p38 ELISA IC50 (Col. C)
pIC50: −log10 of the molar value.

molecule | target.or.system | pIC50
CC(=O)N1CCC(n2cc(-c3cnc(N)c4oc(-c5ccc(O)cc5)cc34)cn2)CC1 [Example 120] | p-p38 in HCT-116 cells | 6.00 to 7.00
Nc1ncc(-c2cnn([C@H]3CC[C@H](O)CC3)c2)c2cc(-c3cccc4nnsc34)oc12 [Example 229] | p-p38 in HCT-116 cells | > 7.00
Nc1ncc(-c2cnn([C@H]3CC[C@H](O)CC3)c2)c2cc(-c3csc4cnc(F)cc34)oc12 [Example 249] | p-p38 in HCT-116 cells | > 7.00
Cc1nn(CC(O)CO)c(C)c1-c1cnc(N)c2oc(-c3cccc4cnccc34)cc12 (centres unmarked) [Example 400] | p-p38 in HCT-116 cells | 5.00 to 6.00
CC(=O)N1CCC(n2cc(-c3cnc(N)c4oc(-c5cccc6cnccc56)cc34)cn2)CC1 [Example 81] | p-p38 in HCT-116 cells | 6.00 to 7.00
CC(=O)N1CCC(n2cc(-c3cnc(N)c4oc(-c5cccc([N+](=O)[O-])c5)cc34)cn2)CC1 [Example 112] | p-p38 in HCT-116 cells | 6.00 to 7.00
CC(=O)N1CCC(n2cc(-c3cnc(N)c4oc(-c5ccccc5)cc34)cn2)CC1 [Example 149] | p-p38 in HCT-116 cells | 5.00 to 6.00

Proceed to the following item.
Per the records, this molecule ( Nc1ncc(-c2cnn(C3CCN(CC(F)(F)F)CC3)c2)c2cc(-c3cccc4cnccc34)oc12 [Example 84] ) has pIC50 equal to 6.00 to 7.00
